- TEST TARGET: T1, Claudin18.2 on cells (human, UniProt P56856-2 1-261)
- T1 construct: whole, on cells; the cell line of each result is named under assay or readout
- ASSAY INFO: flow cytometry on NUGC4 cells, antibody at 3 µg/mL
RECORDED ENDPOINT: mean fluorescence intensity
Give the figure by itself; no unit, no explanation.

Look up mean fluorescence intensity for this binder: IMAB362 (antibody, human IgG1, kappa, V domains shown) VH: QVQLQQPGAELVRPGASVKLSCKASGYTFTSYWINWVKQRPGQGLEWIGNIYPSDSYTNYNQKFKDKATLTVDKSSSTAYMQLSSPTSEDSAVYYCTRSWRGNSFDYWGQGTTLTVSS VL: DIVMTQSPSSLTVTAGEKVTMSCKSSQSLLNSGNQKNYLTWYQQKPGQPPKLLIYWASTRESGVPDRFTGSGSGTDFTLTISSVQAEDLAVYYCQNDYSYPFTFGSGTKLEIKR
131000
